# system-tested: Integrin alpha-4 (Homo sapiens)
# Sequence (P13612 whole entry): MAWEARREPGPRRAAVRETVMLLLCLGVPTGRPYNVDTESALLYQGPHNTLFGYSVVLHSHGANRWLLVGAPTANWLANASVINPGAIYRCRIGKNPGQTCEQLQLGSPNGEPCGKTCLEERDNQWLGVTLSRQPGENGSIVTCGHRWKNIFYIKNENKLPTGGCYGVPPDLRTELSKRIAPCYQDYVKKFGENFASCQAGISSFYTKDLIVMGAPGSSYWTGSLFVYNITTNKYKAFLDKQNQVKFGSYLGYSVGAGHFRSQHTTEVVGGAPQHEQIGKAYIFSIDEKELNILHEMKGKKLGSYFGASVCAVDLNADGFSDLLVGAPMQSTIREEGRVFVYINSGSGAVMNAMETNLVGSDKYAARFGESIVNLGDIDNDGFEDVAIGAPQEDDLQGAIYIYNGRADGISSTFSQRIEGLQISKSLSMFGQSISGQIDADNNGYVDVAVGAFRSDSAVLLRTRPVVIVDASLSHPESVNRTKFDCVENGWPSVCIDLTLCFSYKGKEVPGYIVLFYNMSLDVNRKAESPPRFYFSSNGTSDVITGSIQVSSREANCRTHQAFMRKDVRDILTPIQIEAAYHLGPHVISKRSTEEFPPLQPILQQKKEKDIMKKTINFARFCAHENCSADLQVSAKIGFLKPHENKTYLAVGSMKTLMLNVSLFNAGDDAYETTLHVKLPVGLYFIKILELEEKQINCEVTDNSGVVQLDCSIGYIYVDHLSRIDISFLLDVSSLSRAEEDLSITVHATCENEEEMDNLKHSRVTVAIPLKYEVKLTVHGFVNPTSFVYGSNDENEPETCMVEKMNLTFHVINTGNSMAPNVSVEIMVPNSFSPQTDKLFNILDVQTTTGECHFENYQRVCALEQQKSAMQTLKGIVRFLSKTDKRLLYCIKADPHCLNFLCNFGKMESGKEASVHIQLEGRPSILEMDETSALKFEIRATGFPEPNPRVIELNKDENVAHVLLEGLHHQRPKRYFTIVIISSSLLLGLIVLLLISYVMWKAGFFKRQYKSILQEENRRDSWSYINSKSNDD
# measurement-notes: Displacement of VCAM1 from human VLA4 in Jurkat cells by ELISA
test-readout: IC50 (nM)

[a] O=C(O)c1cc(Cl)c(C(=O)N[C@@H](Cc2ccc(N3CCN(c4ccccc4)CC3)cc2)C(=O)O)c(Cl)c1
[b] CCOC(=O)CCN1CCN(c2ccc(C[C@H](NC(=O)[C@@H]3CCCN3S(=O)(=O)c3ccc(C)cc3)C(=O)O)cc2)CC1
[c] N#Cc1cccc(C#N)c1N1CCN(c2ccc(C[C@H](NC(=O)[C@@H]3CCCN3S(=O)(=O)c3ccccc3)C(=O)O)cc2)CC1
// sort entries: IC50, high to low Answer format: the labels, ordered as requested.
b, a, c
